target-desc: BTK-GFP (Homo sapiens, UniProt Q06187+Q96SW2)
Construct: the BTK open reading frame (ORF) was first shuttled from a pcDNA-DEST40-BTK vector (Invitrogen library ID INV_20090504v1); expressed in transfected cells; host or cells: HEK293A cells (Invitrogen R70507), lentiviral transduction with pLenti6-BTK-GFP-Ires-RFP, blasticidin-selected
Sequence (Q06187 whole entry): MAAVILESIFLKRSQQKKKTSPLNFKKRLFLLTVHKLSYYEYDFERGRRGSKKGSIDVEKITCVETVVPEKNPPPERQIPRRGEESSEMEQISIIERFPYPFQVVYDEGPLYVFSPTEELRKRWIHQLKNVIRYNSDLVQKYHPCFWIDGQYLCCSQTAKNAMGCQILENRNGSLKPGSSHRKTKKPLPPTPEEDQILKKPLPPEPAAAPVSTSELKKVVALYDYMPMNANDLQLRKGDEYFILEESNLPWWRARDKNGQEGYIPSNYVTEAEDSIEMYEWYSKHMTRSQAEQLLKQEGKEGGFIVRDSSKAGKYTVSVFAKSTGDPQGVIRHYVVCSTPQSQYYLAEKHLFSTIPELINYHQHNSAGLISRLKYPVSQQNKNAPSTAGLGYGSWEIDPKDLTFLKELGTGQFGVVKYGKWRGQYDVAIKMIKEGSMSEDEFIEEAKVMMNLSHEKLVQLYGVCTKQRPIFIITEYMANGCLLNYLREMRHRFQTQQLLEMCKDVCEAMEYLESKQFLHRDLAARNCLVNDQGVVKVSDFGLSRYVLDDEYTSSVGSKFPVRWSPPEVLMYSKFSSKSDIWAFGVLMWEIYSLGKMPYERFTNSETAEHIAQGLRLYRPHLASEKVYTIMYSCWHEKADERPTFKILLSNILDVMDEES
Sequence (Q96SW2 whole entry): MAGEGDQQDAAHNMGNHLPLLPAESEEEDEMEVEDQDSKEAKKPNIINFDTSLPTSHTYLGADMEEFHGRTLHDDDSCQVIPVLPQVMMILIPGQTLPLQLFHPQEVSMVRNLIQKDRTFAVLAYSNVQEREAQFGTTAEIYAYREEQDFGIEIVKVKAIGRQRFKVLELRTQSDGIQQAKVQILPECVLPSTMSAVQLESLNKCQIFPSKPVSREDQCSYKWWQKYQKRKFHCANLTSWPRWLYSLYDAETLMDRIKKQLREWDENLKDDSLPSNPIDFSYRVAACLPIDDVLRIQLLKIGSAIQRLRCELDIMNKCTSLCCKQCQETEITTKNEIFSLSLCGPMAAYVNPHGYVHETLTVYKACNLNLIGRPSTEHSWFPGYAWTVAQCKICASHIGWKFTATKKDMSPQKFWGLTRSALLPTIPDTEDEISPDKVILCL
Sequence (Q16531 whole entry partner): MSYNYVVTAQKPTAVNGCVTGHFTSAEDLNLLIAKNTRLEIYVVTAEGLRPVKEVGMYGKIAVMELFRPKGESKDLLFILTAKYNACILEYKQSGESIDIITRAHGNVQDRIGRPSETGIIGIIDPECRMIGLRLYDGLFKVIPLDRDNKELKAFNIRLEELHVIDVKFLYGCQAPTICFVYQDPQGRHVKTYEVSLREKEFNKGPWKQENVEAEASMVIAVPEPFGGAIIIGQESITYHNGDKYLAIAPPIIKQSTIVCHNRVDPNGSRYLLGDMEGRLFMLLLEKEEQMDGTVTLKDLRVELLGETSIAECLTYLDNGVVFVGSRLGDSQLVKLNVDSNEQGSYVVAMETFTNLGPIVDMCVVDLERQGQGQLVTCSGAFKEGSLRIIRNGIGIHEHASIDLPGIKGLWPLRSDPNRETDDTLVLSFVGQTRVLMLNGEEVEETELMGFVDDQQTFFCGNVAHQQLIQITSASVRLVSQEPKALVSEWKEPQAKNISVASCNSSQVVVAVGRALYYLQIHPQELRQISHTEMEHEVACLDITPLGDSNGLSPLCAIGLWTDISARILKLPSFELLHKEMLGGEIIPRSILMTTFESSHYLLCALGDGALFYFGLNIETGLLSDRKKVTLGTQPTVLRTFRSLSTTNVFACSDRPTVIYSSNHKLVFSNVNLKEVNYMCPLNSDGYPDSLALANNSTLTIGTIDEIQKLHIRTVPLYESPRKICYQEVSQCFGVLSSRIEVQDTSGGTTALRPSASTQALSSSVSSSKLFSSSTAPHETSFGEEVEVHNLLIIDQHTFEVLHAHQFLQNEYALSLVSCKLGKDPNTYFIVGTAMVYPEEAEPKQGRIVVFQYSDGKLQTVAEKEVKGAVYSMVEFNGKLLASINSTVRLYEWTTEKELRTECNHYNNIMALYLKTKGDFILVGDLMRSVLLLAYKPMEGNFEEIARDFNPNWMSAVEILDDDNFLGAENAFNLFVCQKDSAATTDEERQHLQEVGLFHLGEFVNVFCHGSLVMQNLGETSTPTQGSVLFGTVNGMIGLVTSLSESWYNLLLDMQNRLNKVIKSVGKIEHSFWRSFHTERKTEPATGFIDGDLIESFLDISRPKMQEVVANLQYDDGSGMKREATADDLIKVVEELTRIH
assay-details: BTK-GFP protein abundance flow cytometry assay in HEK293A cells
Format: cell-based
test-conditions: 24 h, % protein remaining at concentration of maximum degradation
observed-property: BTK deg Amax % (%)
Give the quantity in %, number only.

Some entries whose results are on file:
COc1ccc(C(=O)N2CCC3(CCN(CCc4ccc(-c5cc6c(-c7ccc(F)c(NC(=O)N8C[C@H](CC(C)C)[C@@H](O)C8)c7C)ncnc6[nH]5)cc4)CC3)CC2)cc1N1CCC(=O)NC1=O [Compound 17]    4
CCOc1ccc(C(=O)N2CCC3(CCN(CCc4ccc(-c5cc6c(-c7cc(F)cc(NC(=O)N8C[C@H](CC(C)C)[C@@H](O)C8)c7C)ncnc6[nH]5)cc4)CC3)CC2)cc1N1CCC(=O)NC1=O [Compound 16]    19

For COc1ccc(C(=O)N2CCC3(CCN(CCc4ccc(-c5cc6c(-c7cc(F)cc(NC(=O)N8C[C@@H](CC(C)C)[C@@H](O)C8)c7C)ncnc6[nH]5)cc4)CC3)CC2)cc1N1CCC(=O)NC1=O [Compound 7] , write its BTK deg Amax %. 3.7

Indicate the recorded BTK deg Amax % value for this compound: COc1ccc(C(=O)N2CCC3(CCN(Cc4ccc(-c5cc6c(-c7cc(F)cc(NC(=O)N8C[C@@H](CC(C)C)[C@H](O)C8)c7C)ncnc6[nH]5)cc4)CC3)CC2)cc1N1CCC(=O)NC1=O (racemic) [Compound 5] 4

Name the recorded BTK deg Amax % of the item COc1ccc(C(=O)N2CCC(CN3CCC(Oc4ccc(-c5cc6c(-c7cc(F)cc(NC(=O)N8C[C@H](CC(C)C)[C@@H](O)C8)c7C)ncnc6[nH]5)cc4)CC3)CC2)cc1N1CCC(=O)NC1=O [Compound 11] in your answer. 2.3

# return recorded BTK deg Amax % for entry COc1ccc(C(=O)N2CCC3(CCN(Cc4ccc(-c5cc6c(-c7cc(F)cc(NC(=O)N8C[C@H](CC(C)C)[C@@H](O)C8)c7C)ncnc6[nH]5)cc4)CC3)CC2)cc1N1CCC(=O)NC1=O [Compound 6] 6.2

Report measured BTK deg Amax %; entry is COc1ccc(C(=O)N2CCC3(CCN(Cc4ccc(-c5cc6c(-c7cc(F)cc(NC(=O)N8C[C@@H](CC(C)C)[C@H](O)C8)c7C)ncnc6[nH]5)cc4)CC3)CC2)cc1N1CCC(=O)NC1=O [Compound 1] 15

Look up and report measured BTK deg Amax % for this entry: COc1ccc(C(=O)N2CCC(CCN3CCC(OCc4ccc(-c5cc6c(-c7cc(F)cc(NC(=O)N8C[C@H](CC(C)C)[C@@H](O)C8)c7C)ncnc6[nH]5)cc4)CC3)CC2)cc1N1CCC(=O)NC1=O [Compound 22] 1.4

Provide one value: measured BTK deg Amax % of COc1ccc(C(=O)N2CCC(CCN3CCC(OCc4ccc(-c5cc6c(-c7cc(F)cc(NC(=O)N8CC(O)C(CC(C)C)C8)c7C)ncnc6[nH]5)cc4)CC3)CC2)cc1N1CCC(=O)NC1=O (racemic) [Compound 4] 1.9
